What Binding affinity was measured for each of the following?
molecular target: acetylcholine receptor (Homo sapiens); assay: SPR binding affinity (RU) of optimized 5mer/6mer/7mer peptides, Examples 6-7; conditions: 6mer-2 Top sequence; SPR; peptides tested at 10 μM
A number alone suffices; assume Ru.

Item: 6mer-2-183 (RLQLRR) | Binding affinity: 154

Item: 6mer-2-116 (KLQRKK) | Binding affinity: 126

Item: 6mer-2-36 (RRLQKK) | Binding affinity: 131

Item: 6mer-2-166 (RWLRKR) | Binding affinity: 125

Item: 6mer-2-21 (RLFTRK) | Binding affinity: 141

Item: 6mer-2-174 (KLLRKR) | Binding affinity: 142

Item: 6mer-2-118 (KWFSRR) | Binding affinity: 135

Item: 6mer-2-35 (RWISRK) | Binding affinity: 148

Item: 6mer-2-141 (KWYQKK) | Binding affinity: 154

Item: 6mer-2-113 (KRYSRK) | Binding affinity: 145

Item: 6mer-2-104 (RGVCRK) | Binding affinity: 145

Item: 6mer-2-55 (RLFYKK) | Binding affinity: 125

Item: 6mer-2-197 (RGQYRR) | Binding affinity: 126

Item: 6mer-2-16 (KGVCRR) | Binding affinity: 121

Item: 6mer-2-114 (KLQYRK) | Binding affinity: 121

Item: 6mer-2-146 (KQLLKR) | Binding affinity: 135

Item: 6mer-2-56 (RSQLRR) | Binding affinity: 149

Item: 6mer-2-127 (RLYLRK) | Binding affinity: 136

Item: 6mer-2-152 (RQFYKR) | Binding affinity: 139

Item: 6mer-2-103 (RVVTKK) | Binding affinity: 136

Item: 6mer-2-94 (RLYQRK) | Binding affinity: 126

Item: 6mer-2-137 (KVFCKK) | Binding affinity: 135

Item: 6mer-2-30 (RQFYKK) | Binding affinity: 139

Item: 6mer-2-186 (KQICRK) | Binding affinity: 127

Item: 6mer-2-187 (KRRRRK) | Binding affinity: 145

Item: 6mer-2-15 (KQVRKR) | Binding affinity: 133

Item: 6mer-2-135 (RWFYKK) | Binding affinity: 124

Item: 6mer-2-109 (RRVYRK) | Binding affinity: 144

Item: 6mer-2-120 (RRQCRK) | Binding affinity: 146

Item: 6mer-2-50 (RSQSKR) | Binding affinity: 125

Item: 6mer-2-189 (RWQCKK) | Binding affinity: 121

Item: 6mer-2-29 (RSQRKR) | Binding affinity: 142

Item: 6mer-2-111 (KLIRRK) | Binding affinity: 123

Item: 6mer-2-110 (KSQLKK) | Binding affinity: 153

Item: 6mer-2-149 (KGQQRK) | Binding affinity: 127

----------
biological target: acetylcholine receptor (Homo sapiens, UniProt P02708); test: SPR binding affinity (RU) of optimized 5mer/6mer/7mer peptides, Examples 6-7; settings: SPR, Resonance Units; peptides tested at 10 μM; 6mer-2 Bottom sequence
Sequence (P02708 21-457): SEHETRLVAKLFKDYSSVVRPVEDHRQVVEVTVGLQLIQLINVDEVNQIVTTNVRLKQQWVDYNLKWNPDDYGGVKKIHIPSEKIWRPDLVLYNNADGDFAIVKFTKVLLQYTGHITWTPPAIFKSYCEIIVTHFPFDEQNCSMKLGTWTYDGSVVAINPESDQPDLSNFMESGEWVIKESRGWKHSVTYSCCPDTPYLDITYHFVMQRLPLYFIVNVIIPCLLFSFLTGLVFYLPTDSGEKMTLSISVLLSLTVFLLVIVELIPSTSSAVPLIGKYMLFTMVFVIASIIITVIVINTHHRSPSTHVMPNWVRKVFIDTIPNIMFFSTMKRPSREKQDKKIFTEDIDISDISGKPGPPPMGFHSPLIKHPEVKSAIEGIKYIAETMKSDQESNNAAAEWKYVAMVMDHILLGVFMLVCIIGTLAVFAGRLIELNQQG
What Binding affinity was measured for each of the following?
A number alone suffices; assume Ru.

Item: 6mer-2-694 (KDSIRK) | Binding affinity: 22

Item: 6mer-2-604 (KEPIRK) | Binding affinity: 16

Item: 6mer-2-794 (KAEMRR) | Binding affinity: 19

Item: 6mer-2-828 (RMKKKR) | Binding affinity: 32

Item: 6mer-2-933 (RYSMKR) | Binding affinity: 34

Item: 6mer-2-719 (KIKPRR) | Binding affinity: 29

Item: 6mer-2-614 (KAWIRR) | Binding affinity: 19

Item: 6mer-2-693 (KNTIRR) | Binding affinity: 16

Item: 6mer-2-811 (KAMKRK) | Binding affinity: 16

Item: 6mer-2-924 (RFDHKK) | Binding affinity: 28

Item: 6mer-2-653 (KIEMKR) | Binding affinity: 20

Item: 6mer-2-716 (RTWKKR) | Binding affinity: 18

Item: 6mer-2-713 (RASWRR) | Binding affinity: 24

Item: 6mer-2-932 (RIPWRR) | Binding affinity: 35

Item: 6mer-2-994 (KYCIKK) | Binding affinity: 41

Item: 6mer-2-886 (KTWVRR) | Binding affinity: 13
